- assayed.system: UniProt Q13639
- Sequence (Q13639 whole entry): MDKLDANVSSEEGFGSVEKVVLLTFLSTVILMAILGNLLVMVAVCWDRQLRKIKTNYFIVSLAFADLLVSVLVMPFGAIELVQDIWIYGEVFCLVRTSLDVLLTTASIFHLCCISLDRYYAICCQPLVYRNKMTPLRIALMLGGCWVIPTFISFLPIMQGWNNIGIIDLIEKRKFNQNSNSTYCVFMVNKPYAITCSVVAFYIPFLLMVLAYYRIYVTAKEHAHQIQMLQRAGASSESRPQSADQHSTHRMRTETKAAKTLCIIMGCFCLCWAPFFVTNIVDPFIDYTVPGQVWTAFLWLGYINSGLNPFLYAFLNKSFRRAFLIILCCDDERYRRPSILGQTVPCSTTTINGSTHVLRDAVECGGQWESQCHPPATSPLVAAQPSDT
- experiment: Concentration required to produce half-maximal response against 5-hydroxytryptamine receptor in the presence of 10 nM compound in isolated human atrial myocytes
experimental.readout: pEC50
As a rule, pEC50 stands for the negative log10 of the concentration, concentration in M.

Note to self: pEC50 of COc1cc(N)c(Cl)cc1C(=O)OCCN1CCN(c2ncccn2)CC1 with UniProt Q13639 was 7.18
